Recorded fluorescence lifetime, one value per entry.
TEST_PROTOCOL: solvent given as SMILES
TEST_PARAMETERS: in Cc1ccccc1
Answer with a number only, understood to be in ns.

Solved entries:
MOLECULE	fluorescence lifetime, ns
CSC1=C2C=C(c3cc4n(c3)[B-](F)(F)[N+]3=CC=CC3=C4c3c(C)cc(C)cc3C)C(C)=[N+]2[B-](F)(F)n2c(C)ccc21	1.81
COc1cc(N(c2ccccc2)c2ccc(C=C(C#N)C#N)c(OC)c2)ccc1C=C(C#N)C#N	0.051
COC(=O)/C(C#N)=c1\s/c(=c2/s/c(=C(/C#N)C(=O)OC)c3cc(-c4ccc5c(c4)C(C)(C)c4ccccc4-5)sc23)c2sc(-c3ccc4c(c3)C(C)(C)c3ccccc3-4)cc12	4.38
CCCCN1/C(=C\c2c(-c3ccc(N(C)C)cc3)c(=O)c2=O)C=Cc2ccccc21	2.99
Cn1nc(-c2ccccc2)c2n[nH]nc2/c1=N\c1ccccn1	0.34

Prompt line: Given `N#Cc1ccc(/C=C/c2c3ccccc3cc3ccccc23)cc1` , state its recorded fluorescence lifetime.
Response line: 2.12

Prompt line: Now consider `Cn1cc(-c2nc3ccccc3nc2/C=C/N2CCCC2)c2ccccc21` and answer again.
Response line: 3.62

Prompt line: Can you check `CCCCOC(=O)c1cc(Cl)c2c3c(Cl)cc4c5c(cc(Cl)c(c6c(Cl)cc(C(=O)OCCCC)c1c26)c53)C(=O)N(c1c(C(C)C)cccc1C(C)C)C4=O` next?
Response line: 4.86

###

TEST_PROTOCOL: solvent given as SMILES
TEST_PARAMETERS: in ClCCl
PARAMETER: fluorescence lifetime (ns)
Give the number; ns is assumed, so skip it.

MOLECULE	fluorescence lifetime [ns]
CCCCN1C(=O)c2cc(Oc3ccc(C(C)(C)C)cc3)c3c4c(Oc5ccc(C(C)(C)C)cc5)cc5c(=O)[nH]/c(=C\c6ccccn6)c6cc(Oc7ccc(C(C)(C)C)cc7)c(c7c(Oc8ccc(C(C)(C)C)cc8)cc(c2c37)C1=O)c4c56	4.05

Prompt line: Fill blank: measured fluorescence lifetime of the molecule `CCN(CC)c1ccc2c(-c3ccccc3C(=O)O)c3c([o+]c2c1)/C(=C/c1nc(C)n2ccccc12)CCC3` is ____.
Response line: 2.21

Prompt line: Please answer likewise for `O=[N+]([O-])c1cccc2c1ccc1[n+]2[B-](F)(F)n2c-1cc1c3ccccc3c3ccccc3c12`
Response line: 2.67

Prompt line: What do you have for `c1ccc2c(c1)Nc1ccccc1B2c1c2ccccc2cc2ccccc12` ?
Response line: 16.8

###

fluorescence lifetime by entry:
TEST_PROTOCOL: solvent given as SMILES
TEST_PARAMETERS: in CCO
All answers are understood in ns, so give the number only.

Solved cases (5 shown):
In [3]: df
Out[3]:
                                   compound  value_measured
0         COc1c2ccccc2c(-c2ccccc2)c2ccccc12             2.9
1  Cn1nc(-c2ccccc2)c2n[nH]nc2/c1=N\c1ccccn1            0.44
2            O=C(O)c1ccc2ccc3cccc4ccc1c2c34            7.78
3               O=Cc1ccc2ccc3cccc4ccc1c2c34            6.44
4  NS(=O)(=O)c1ccc(N2N=C(c3ccc(O)cc3)CC2c2ccc([N+](=O)[O-])cc2)cc1 (configuration not stated)            1.31

Prompt line: Given `CCNc1cc2oc3c/c(=[NH+]\CC)c(C)cc-3c(-c3ccccc3C(=O)OCC)c2cc1C` , state its recorded fluorescence lifetime.
Response line: 3.96

Prompt line: Queued: `OB(O)c1ccc(-c2ccc(N(c3ccccc3)c3ccccc3)cc2)cc1`
Response line: 2.39

Prompt line: Also check `N#Cc1cnc(-c2c3ccccc3cc3ccccc23)nc1`
Response line: 1.3

Prompt line: Repeat for the following compound: `CCOc1ccc2c(-c3nc(-c4ccccc4)no3)cc(=O)oc2c1`
Response line: 6.7

Prompt line: Note, next up: `O=C([O-])c1ccc(C2=c3cc4c5c(c3Oc3c2cc2c6c3CCCN6CCC2)CCC[N+]=5CCC4)c(C(=O)[O-])c1`
Response line: 4.87

Prompt line: Also check `CCC1=C(C)C2=C(C)c3cccn3[B-](F)(F)[N+]2=C1C`
Response line: 5.73

Prompt line: Now try `CC1=CC2=Nc3nc(C)[n+](C)cc3CN2C=C1` .
Response line: 5.31

Prompt line: Another compound: `Cc1cc2c(o1)c(C)cc1ccc(=O)oc12`
Response line: 2.3

Prompt line: Same read-out for `Cn1ccc(-c2nc3ccccc3nc2/C=C/N2CCCC2)c1` ?
Response line: 0.39

Prompt line: // repeat for CCN(CC)c1ccc2c(c1)OC1=CC(N(CC)CC)C=CC1[C+]2c1ccccc1C(=O)O (configuration not stated) and report
Response line: 2.45

Prompt line: Follow-up item: `CCOC(=O)c1ccccc1-c1c2ccc(=O)cc-2oc2cc(OC(=O)[C@H](CSCc3ccc(C)cc3)NC(=O)OC(C)(C)C)ccc12`
Response line: 3.29

Prompt line: // same read-out, input: ClC(Cl)=C1c2ccccc2C(C2(Cl)c3ccccc3C(=C(Cl)Cl)c3ccccc32)c2ccccc21 (configuration not stated)
Response line: 11.7

Prompt line: Repeat for the following compound: `CCN(CC)c1ccc2nc3c4ccccc4c(=O)cc-3oc2c1`
Response line: 3.65

Prompt line: Also, `CSc1sc(C(N)=O)c2nnn(C)c(=O)c12` please.
Response line: 14

Prompt line: Item: `CCN(CC)c1ccc2cc3ccc(=[N+](CC)CC)cc-3oc2c1`
Response line: 3.89

Prompt line: Likewise for `COc1cccc2c1C(=O)c1ccccc1-2` ?
Response line: 5.98

Prompt line: Same read-out for `CCC1=C(C)C2=Cc3cc(I)c(I)n3[B-](F)(F)[N+]2=C1C` ?
Response line: 0.943

###

Listed compounds paired with reported fluorescence lifetime
TEST_PROTOCOL: solvent given as SMILES
TEST_PARAMETERS: in CC#N
// units = ns; emit number, no label

Would you please look over these solved cases?
COMPOUND	fluorescence lifetime, ns
O=c1oc2ccccc2cc1/C=C/c1ccccc1	2.48
COC(=O)C(Cc1ccc2oc(-c3ccc(-n4c5ccccc5c5ccccc54)cc3)nc2c1)NC(=O)OC(C)(C)C (configuration not stated)	5.02
c1ccc2c(c1)[nH]c1ccccc12	15.1
CC1=CC(c2ccc3ccccc3c2)=[O+][B-]2(OC(=O)C(=O)O2)O1	18.8
O=Cc1ccc2ccc3cccc4ccc1c2c34	8.76
O=S1(=O)c2ccc(-c3c4ccccc4cc4ccccc34)cc2-c2cc(-c3c4ccccc4cc4ccccc34)ccc21	4.3
O=[N+]([O-])c1ccc(/C=C/c2nc3c4ccccc4c4ccccc4c3o2)cc1	3.01
CC(=O)O[B-]1(OC(C)=O)OC(/C=C/c2cccc3ccccc23)=CC(/C=C/c2cccc3ccccc23)=[O+]1	4.5
CCOC(=O)c1ccccc1-c1c2ccc(=O)cc-2oc2cc(OC(=O)[C@H](CO[Si](C)(C)C(C)(C)C)NC(=O)OC(C)(C)C)ccc12	2.7
COC(=O)C(NC(=O)OC(C)(C)C)c1ccc2oc(-c3ccc(O)cc3O)nc2c1 (configuration not stated)	1.44

Prompt line: Reported fluorescence lifetime, compound `Fc1cccc(-[c+]2c3ccccc3sc3ccccc32)c1` : ____
Response line: 1.3

Prompt line: What do we get for `c1ccc(-[c+]2c3ccccc3sc3ccccc32)cc1` ?
Response line: 1

Prompt line: Now the same for `CN1CCN(c2ccc3c4c(cccc24)C(=O)c2ccccc2-3)CC1`
Response line: 9.53

Prompt line: Okay, and `O=C(O)c1ccc(-c2ccc(-c3nc(-c4ccccc4)c4ccccn34)cc2)s1` ?
Response line: 1.5

Prompt line: Next record, please: `C(#Cc1ccccc1C#Cc1ccccc1)c1ccccc1`
Response line: 1.47

Prompt line: Follow-up entry: `CCCCCCCCCC[n+]1cc2ccc3c[n+](CCCCCCCCCC)cc4ccc(c1)c2c34`
Response line: 9.5

Prompt line: Moving on to `Cc1ccc(-c2ccc(/C=C/c3ccc(Br)n3C)cn2)nc1`
Response line: 0.66

Prompt line: Param item: `Cc1cc(C)c2nc3[nH]c(=O)[nH]c(=O)c3nc2c1`
Response line: 1.65

Prompt line: Queued: `COc1ccc(-c2nc3ccccc3nc2/C=C/N2CCCC2)s1`
Response line: 5.78

Prompt line: Again, but for `COc1ccc(/C=C/c2ccccc2)cc1OC`
Response line: 0.5

Prompt line: Subsequent entry: `CN(C)c1ccc(/C=C/c2ccc(-c3ccc(/C=C/c4ccc(N(C)C)cc4)s3)s2)cc1`
Response line: 1.12

Prompt line: Try this compound next: `C(=C\c1cc(/C=C/c2ccc(-n3c4ccccc4c4ccccc43)cc2)cc(/C=C/c2ccc(-n3c4ccccc4c4ccccc43)cc2)c1)/c1ccc(-n2c3ccccc3c3ccccc32)cc1`
Response line: 3.84

Prompt line: Follow-up entry: `COc1cccc2c1C(=O)c1ccccc1-2`
Response line: 2.1
